Numbers sourced from PubChem BioAssay (NCATS).

# System: OV90
# experimental-details: Primary qHTS to identify gynecologic anti-cancer compounds using libraries of approved drugs and bioactive compounds (AID 1345084); note: nearly all actives have a fitted effect of over 55% in size; note: potency is the fitted concentration of half-maximal effect
# condition: Gynecologic cancer cell panel viability, ATPlite luminescence, 48 h; series mostly up to 57.5 µM
Results filed as inconclusive are left out. Active and inactive are the calls of the source. Calls come from the whole dose curve; as a rule, active = well fitted cell-killing curve with a large enough effect; inconclusive = small, poorly fitted or top-dose-only effect, or effect the other way; inactive = flat fitted curve, though single readings scatter.
metric: Potency

Example entries begin here.
{"molecule": "O=C(c1ccc(F)cc1)C1CCN(CCn2c(=S)[nH]c3ccccc3c2=O)CC1", "Potency": "inactive"}
{"molecule": "O=C(Nc1ccc([N+](=O)[O-])cc1)Nc1ccc([N+](=O)[O-])cc1", "Potency": "inactive"}
{"molecule": "CN1CCN(CCC(=O)N2c3ccccc3Sc3ccc(C(F)(F)F)cc32)CC1", "Potency": "15.8 µM (active)"}
{"molecule": "CCN1CCCC(OC(=O)C(c2ccccc2)c2ccccc2)C1 (configuration not stated)", "Potency": "inactive"}
{"molecule": "CC[C@]12CCCN3CCc4c(n(c5ccccc45)C(=O)C1)[C@@H]32", "Potency": "inactive"}

*Q* // fetch Potency given entry `COc1ccc(S(=O)(=O)N2c3ccc(Cl)cc3[C@@](O)(c3ccccc3Cl)[C@H]2C(=O)N2CCC[C@@H]2C(N)=O)cc1OC`
*A* inactive

*Q* // fetch Potency given entry `CCCc1ncc(C[n+]2ccccc2C)c(N)n1`
*A* inactive

*Q* // fetch Potency given entry O=C1C(CCS(=O)c2ccccc2)C(=O)N(c2ccccc2)N1c1ccccc1 (configuration not stated)
*A* inactive

*Q* // fetch Potency given entry `Cc1cccc(C)c1NC(=O)CN1CCCCCC1`
*A* inactive

*Q* // fetch Potency given entry `O=C(N/N=C/c1ccc([N+](=O)[O-])o1)c1ccc(O)cc1`
*A* 22.4 µM (active)

*Q* // fetch Potency given entry `O=C1OC2(c3ccccc31)c1cc(Br)c(O)c(Br)c1Oc1c2cc(Br)c(O)c1Br`
*A* inactive

*Q* // fetch Potency given entry COP(=O)(OC)OC(c1ccc(Cl)cc1)P(=O)(OC)OC (configuration not stated)
*A* inactive

*Q* // fetch Potency given entry `CC(C)(C)NC[C@H](O)COc1cccc2c1CCCC2=O`
*A* inactive

*Q* // fetch Potency given entry COC(=O)C(c1ccccc1Cl)N1CCc2sccc2C1 (configuration not stated)
*A* inactive

*Q* // fetch Potency given entry `NC(N)=NN=C(/C=C/c1ccc([N+](=O)[O-])o1)/C=C/c1ccc([N+](=O)[O-])o1`
*A* 15.8 µM (active)

*Q* // fetch Potency given entry `Cn1c(=O)c2[nH]c(Br)nc2n(C)c1=O`
*A* inactive

*Q* // fetch Potency given entry `Cc1cn([C@H]2C[C@H](F)[C@@H](CO)O2)c(=O)[nH]c1=O`
*A* inactive

*Q* // fetch Potency given entry `O=C(NC1CCN(CCc2c[nH]c3ccccc23)CC1)c1ccccc1`
*A* inactive

*Q* // fetch Potency given entry `C[C@H]1O[C@@H](O[C@H]2CC[C@@]3(C)[C@H](CC[C@@H]4[C@@H]3C[C@@H](O)[C@]3(C)[C@@H](C5=CC(=O)OC5)CC[C@]43O)C2)C[C@H](O)[C@@H]1O[C@H]1C[C@H](O)[C@H](O[C@H]2C[C@H](O)[C@H](O[C@@H]3O[C@H](CO)[C@@H](O)[C@H](O)[C@H]3O)[C@@H](C)O2)[C@@H](C)O1`
*A* 1.58 µM (active)

*Q* // fetch Potency given entry N#C/C(=C1\SCC(c2ccccc2Cl)S1)n1ccnc1 (configuration not stated)
*A* inactive

*Q* // fetch Potency given entry CCC(Cc1c(I)cc(I)c(N)c1I)C(=O)O (configuration not stated)
*A* inactive

*Q* // fetch Potency given entry `CCN(CC)CCOc1ccc2c(c1)C(=O)c1cc(OCCN(CC)CC)ccc1-2`
*A* 12.6 µM (active)

###

# experimental-details: Drug repurposing screens with cells derived from glioblastoma tumor samples (AID 1345199); note: % is set by controls: 0 for no effect and ±100 for the full control effect; nearly all actives have a fitted effect of over 40% in size
# condition: GBM patient neurospheres viability, ATP luminescence, 48 h; at 20 µM (top of the series); tumour line C
Records with an inconclusive call do not appear.
metric: activity, negative = cell killing (%)
Provide the reading as a plain figure in %.

Example entries begin here.
{"compound": "NS(=O)(=O)c1cc(C(=O)O)cc(N2CCCC2)c1Oc1ccccc1", "activity, negative = cell killing [%]": 0.209}
{"compound": "Cc1c(-c2ccccc2)oc2c(C(=O)OCCN3CCCCC3)cccc2c1=O", "activity, negative = cell killing [%]": 10.4}
{"compound": "CC(CNC1CCCCC1)OC(=O)c1ccccc1 (stereo not given)", "activity, negative = cell killing [%]": 10.5}
{"compound": "O=C1OC(CN2CCOCC2)CN1/N=C/c1ccc([N+](=O)[O-])o1 (stereo not given)", "activity, negative = cell killing [%]": -25.2}

Would you kindly look at the next entry?
*Q* // fetch activity, negative = cell killing given entry O=C(Nc1ccccc1)OCC(CN1CCCCC1)OC(=O)Nc1ccccc1 (stereo not given)
*A* -1.96

###

# System: OV90
# experimental-details: Primary qHTS to identify gynecologic anti-cancer compounds using libraries of approved drugs and bioactive compounds (AID 1345084); note: nearly all actives have a fitted effect of over 55% in size
# condition: Gynecologic cancer cell panel viability, ATPlite luminescence, 48 h; series mostly up to 57.5 µM
Records with an inconclusive call do not appear. The source made the active and inactive calls. Calls come from the whole dose curve; as a rule, active = well fitted cell-killing curve with a large enough effect; inconclusive = small, poorly fitted or top-dose-only effect, or effect the other way; inactive = flat fitted curve, though single readings scatter.
Hi there, use one of these labels in your reply, thanks! active, inactive

The following compounds have reported results that may help.
{"compound": "CC(=O)O[C@H]1C[C@@H]2CC[C@@H]3[C@H](CC[C@@]4(C)[C@H]3C[C@H]([N+]3(C)CCCCC3)[C@@H]4OC(C)=O)[C@@]2(C)C[C@@H]1N1CCCCC1", "label-value": "inactive"}
{"compound": "CN1CCN(c2cc3c(cc2F)c(=O)c(C(=O)O)cn3-c2ccc(F)cc2)CC1", "label-value": "inactive"}
{"compound": "CC(C(=O)O)c1cccc(Oc2ccccc2)c1 (stereo unspecified)", "label-value": "inactive"}
{"compound": "CCN(CC)CCNC(=O)COc1ccc(OC)cc1", "label-value": "inactive"}
{"compound": "CC(C)(C)NC[C@H](O)COc1nsnc1N1CCOCC1", "label-value": "inactive"}
{"compound": "CCCCC(CC)COC(=O)/C=C/c1ccc(OC)cc1 (stereo unspecified)", "label-value": "inactive"}
{"compound": "CC1CCc2c(N3CCC(O)CC3)c(F)cc3c(=O)c(C(=O)O)cn1c23 (stereo unspecified)", "label-value": "inactive"}
{"compound": "CC(C)Nc1cccnc1N1CCN(C(=O)c2cc3cc(NS(C)(=O)=O)ccc3[nH]2)CC1", "label-value": "inactive"}
{"compound": "O=C(O)CCc1nc2ccccc2[nH]1", "label-value": "inactive"}
{"compound": "CC(C)n1c(/C=C/[C@@H](O)C[C@@H](O)CC(=O)O)c(-c2ccc(F)cc2)c2ccccc21", "label-value": "active"}

Then this compound:
*Q* So what was the verdict on CC(C)[N+](C)(C)CC(O)COc1cccc2ccccc12 (stereo unspecified) in this test?
*A* inactive

###

# Test system: ECU
# experimental-details: qHTS profiling for inhibitors of Plasmodium falciparum proliferation (AID 504749); note: nearly all actives have a fitted effect of over 60% in size; note: potency is the fitted concentration of half-maximal effect
# condition: P. falciparum in erythrocytes, SYBR Green DNA, 72 h; series mostly up to 28.7 µM
Results filed as inconclusive are left out. The source made the active and inactive calls. Calls follow the shape of the dose curve; as a rule, active = well fitted inhibition curve with a large enough effect; inconclusive = small, poorly fitted or top-dose-only effect; inactive = flat fitted curve, though single readings scatter.
metric: Potency

Example entries begin here.
{"compound": "O[C@@H](c1cc(C(F)(F)F)nc2c(C(F)(F)F)cccc12)[C@H]1CCCCN1", "metric": "Potency", "endpoint-result": "0.0126 µM (active)"}
{"compound": "CCCc1ncc(C[n+]2ccccc2C)c(N)n1", "metric": "Potency", "endpoint-result": "inactive"}
{"compound": "O=c1[nH]c(=O)n([C@H]2C[C@H](O)[C@@H](CO)O2)cc1F", "metric": "Potency", "endpoint-result": "inactive"}
{"compound": "NC(=O)C1(N2CCCCC2)CCN(CCCC(=O)c2ccc(F)cc2)CC1", "metric": "Potency", "endpoint-result": "inactive"}
{"compound": "O=C(Nc1ncc([N+](=O)[O-])s1)c1cccs1", "metric": "Potency", "endpoint-result": "inactive"}

*Q* // fetch Potency given entry `Cc1ccc(O)c([C@H](CCN(C(C)C)C(C)C)c2ccccc2)c1`
*A* 3.98 µM (active)

*Q* // fetch Potency given entry Clc1cccc(C(c2ccc3nc[nH]c3c2)n2ccnc2)c1 (stereo not given)
*A* 3.16 µM (active)

*Q* // fetch Potency given entry `CNCCc1ccccn1`
*A* inactive

*Q* // fetch Potency given entry `O=C(Oc1cccc2cccnc12)c1ccccc1`
*A* inactive

*Q* // fetch Potency given entry CCCCCCCCNC(C)C(O)c1ccc(SC(C)C)cc1 (stereo not given)
*A* 0.355 µM (active)

*Q* // fetch Potency given entry `O=C(O)C1(C(=O)O)CCC1.[NH2-].[NH2-].[Pt+2]`
*A* inactive

*Q* // fetch Potency given entry `CC(=O)Oc1ccc(C)cc1`
*A* inactive

*Q* // fetch Potency given entry `CCC(CC)(CC(=O)Nc1cccc(/C=C/c2nc(C3CCC3)cs2)c1)C(=O)O`
*A* inactive

*Q* // fetch Potency given entry `CCc1oc2ccccc2c1C(=O)c1cc(Br)c(O)c(Br)c1`
*A* inactive

*Q* // fetch Potency given entry `O=C(Nc1cccc(C2=NCCN2)c1)Nc1cccc(C2=NCCN2)c1`
*A* 3.16 µM (active)

*Q* // fetch Potency given entry CC[N+](C)(CC)CCOC(=O)C(O)(c1ccccc1)C1CCCCC1 (stereo not given)
*A* inactive

*Q* // fetch Potency given entry `NC(N)=NCc1cccc(I)c1`
*A* inactive

*Q* // fetch Potency given entry `NCc1ccccc1Sc1ccccc1CO`
*A* inactive

*Q* // fetch Potency given entry `C/C=C/C=N/NC(=O)c1ccncc1`
*A* inactive

*Q* // fetch Potency given entry `FC(F)(F)C(F)(F)C(F)(F)C(F)(F)C(F)(F)C(F)(F)C(F)(F)C(F)(F)Br`
*A* inactive
